System: OVCAR-3 ovarian
Assay: NCI-60 one-dose screen, 48 h
Conditions: 10 µM
This is part of a sample that, as a whole, favours compounds with a hit. Of some 83,000 tested, about 20% had one in any assay. Active and inactive are the calls of the source. Rule for the calls: active = growth percent below 10; inactive = the rest.
Outcome (select one): active, inactive

>>> assigned_label("O=C(CSc1nnc(-c2ccc3nc(-c4ccc(Cl)cc4)[nH]c3c2)o1)Nc1ccc(Cl)cc1")
"active"
>>> assigned_label("Cc1ccc(NC(=O)c2ccc(-n3c(=O)[nH]c4ccccc4c3=O)cc2)cc1")
"inactive"
>>> assigned_label("Cc1ccc(-c2ccc(SCC(=O)Nc3ccc(Cl)c(C(F)(F)F)c3)nn2)cc1")
"active"

Recorded test outcome, item CC1=N/C(=C\c2ccc(N(C)C)cc2)C(=O)N1CCc1ccc(S(N)(=O)=O)cc1
inactive

Recorded test outcome, item C=C(C)[C@@H]1CC[C@]2(C)[C@H](CC=C3[C@@H]4CC(C)(C)CC[C@]4(C(=O)N4CCOCC4)CC[C@]32C)[C@@]1(C)CCCN
active

Recorded test outcome, item CC1(c2ccccc2)NC(=O)N(CC(=O)Nc2ccc(C(=O)/C=C/c3ccc(Cl)cc3)cc2)C1=O (stereo unspecified)
active
